# TARGET: T1, hVEGF-A (8-109) (human, UniProt P15692 214-315)
# T1 sequence (looked up): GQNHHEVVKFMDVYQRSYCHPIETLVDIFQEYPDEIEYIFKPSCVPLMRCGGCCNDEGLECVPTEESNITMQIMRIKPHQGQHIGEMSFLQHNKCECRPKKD
# ASSAY METHOD TEXT: spot phage ELISA
OBSERVATION TYPE: S/N vs BSA
Could you respond with only the numeric value?

Query: S/N vs BSA; subject: GCWDPTFNWALYCKQDSDCLAGCVCQMYDSCG (designed binder) [VEGF_CKP7.24]
13.4

Query: S/N vs BSA; subject: GCLDRTLNWALYCKQDSDCLAGCVCQMYNSCG (designed binder) [VEGF_CKP7.54]
9.3

Query: S/N vs BSA; subject: GCEDPTVDWAQYCKQDSDCLAGCVCQMYQSCG (designed binder) [VEGF_CKP7.46]
4.9

Query: S/N vs BSA; subject: GCQDPTFNWALYCKQDSDCLAGCVCQMYQSCG (designed binder) [VEGF_CKP7]
1.3

From: patent US20200325187A1
